- testedSystem: Pseudomonas aeruginosa LpxC enzyme (Pseudomonas aeruginosa, UniProt P47205)
- Construct: made in house; host or cells: E. coli
- Sequence (P47205 whole entry): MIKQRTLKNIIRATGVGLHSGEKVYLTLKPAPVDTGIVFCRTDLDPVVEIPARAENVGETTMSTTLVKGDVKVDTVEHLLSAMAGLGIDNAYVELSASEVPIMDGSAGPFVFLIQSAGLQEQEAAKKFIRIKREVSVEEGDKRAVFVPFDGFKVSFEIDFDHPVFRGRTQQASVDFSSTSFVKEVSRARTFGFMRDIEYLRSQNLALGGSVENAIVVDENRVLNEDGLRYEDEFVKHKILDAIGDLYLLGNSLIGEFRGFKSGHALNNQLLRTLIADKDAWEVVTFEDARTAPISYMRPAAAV
- assayRemarks: IC50 assay, LpxC enzyme from P. aeruginosa
- Format: biochemical
- assayConditions: 0.5 nM enzyme, 25° C., pH 8.0, 20 min; ** = average of 2-8 assays
Reported IC50 is given for each of the following compounds.
Reply numerically in µM, unit not repeated.

Observe how each entry below is paired with its result.
> print(dat)
                                   compound                              testedsystem  experimentalreadout  numericreadout
1  C[C@@](OCc1ccc(-c2ccccc2)cc1)(C(=O)NO)[C@@H](O)c1ccn[nH]1  Pseudomonas aeruginosa LpxC enzyme (Pseudomonas aeruginosa, UniProt P47205)                 IC50         0.00195
2  CC(C)C[C@H](O)[C@](C)(OCc1ccc(-c2ccccc2)cc1)C(=O)NO  Pseudomonas aeruginosa LpxC enzyme (Pseudomonas aeruginosa, UniProt P47205)                 IC50            0.16
3  CC(CO)(OCc1ccc(-c2ccc(F)cc2F)cc1)C(=O)NO (centres unmarked)  Pseudomonas aeruginosa LpxC enzyme (Pseudomonas aeruginosa, UniProt P47205)                 IC50         0.00332
4  CC(CO)(OCc1ccc(-c2ccc(C3=NNC(=O)CC3)cc2)cc1)C(=O)NO (centres unmarked)  Pseudomonas aeruginosa LpxC enzyme (Pseudomonas aeruginosa, UniProt P47205)                 IC50          0.0105

QUERY: What does the data say about its IC50? Entry: O=C(NO)C1(OCc2ccc(-c3ccccc3)cc2)CCOCC1
RESULT: 0.04

QUERY: Similarly, C[C@@](OCc1ccc(-c2ccccc2)cc1)(C(=O)NO)[C@@H](O)c1ccno1 ?
RESULT: 0.00079

QUERY: Next up: CC(OCc1ccc(-c2ccccc2)cc1)(C(=O)NO)C(=O)NCc1nnn[nH]1 (centres unmarked)
RESULT: 0.00134

QUERY: Next compound: CC(OCc1ccc(-c2ccccc2)cc1)(C(=O)NO)C(=O)NCC1(O)CCCC1 (centres unmarked)
RESULT: 0.0955

QUERY: Another: CC(OCc1ccc(-c2ccccc2)cc1)(C(=O)NO)C(=O)NCCO (centres unmarked)
RESULT: 0.0261

QUERY: Input COCc1cc(CNC(=O)C(C)(OCc2ccc(-c3ccccc3)cc2)C(=O)NO)no1 (centres unmarked)
RESULT: 0.00159

QUERY: What would you report for CC(C)[C@H](O)[C@](C)(OCc1ccc(-c2ccccc2)cc1)C(=O)NO ?
RESULT: 0.0716

QUERY: Now the compound CCCc1ccc(-c2ccc(COC(CO)(CO)C(=O)NO)cc2)cc1
RESULT: 0.00186

QUERY: // same read-out, input: C[C@@](OCc1ccc(-c2ccccc2)cc1)(C(=O)NO)[C@@H](O)c1c[nH]cn1
RESULT: 0.00084

QUERY: What do you have for C[C@@](OCc1ccc(-c2ccccc2)cc1)(C(=O)NO)[C@@H](O)c1ccco1 ?
RESULT: 0.00163

QUERY: Subsequent entry: Cn1cc(CCNC(=O)C(C)(OCc2ccc(-c3ccccc3)cc2)C(=O)NO)cn1 (centres unmarked)
RESULT: 0.0156

QUERY: Now this one: CC(OCc1ccc(-c2ccccc2)cc1)(C(=O)NO)C(=O)NCc1cc(-c2ccccc2)on1 (centres unmarked)
RESULT: 0.0032

QUERY: What do you get for C[C@@](OCc1ccc(-c2ccccc2)cc1)(C(=O)NO)[C@@H](O)c1ccccn1 ?
RESULT: 0.0015

QUERY: Please answer likewise for Cn1ccnc1[C@H](O)[C@](C)(OCc1ccc(-c2ccccc2)cc1)C(=O)NO
RESULT: 0.00246
